Test system: 786-0 complex spheroids with HUVEC/MSC, growth % test/control
Test: Anticancer human tumor 786-0 cell line growth inhibition [AhR];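 also: compound exposure lasted seven days before the read-out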
Settings: second compound 0.316 µM; first compound 0.0949 µM; stronger effect = lower value
observed_property: viability, T/C (%)
Give bare numbers, in %.

Consider the worked cases shown below.
{"molecule": "O=C(C=Cn1cnc(-c2cc(C(F)(F)F)cc(C(F)(F)F)c2)n1)NNc1cnccn1 + CC(CO)NC(=O)c1cc(-c2ccc(Cl)cc2)nn(-c2cnn(C)c2)c1=O", "viability, T/C [%]": 112}
{"molecule": "O=C(C=Cn1cnc(-c2cc(C(F)(F)F)cc(C(F)(F)F)c2)n1)NNc1cnccn1 + Cc1cncc(-c2nc(NCCc3c[nH]c4ccccc34)c3ncn(C(C)C)c3n2)c1", "viability, T/C [%]": 151}

// each molecule listed below needs its viability, T/C
1. Nc1ncn(C2CC(O)C(CO)S2)c(=O)n1 (stereo not given) + Cc1ccccc1N=Nc1ccc(NC(=O)c2ccnn2C)c(C)c1
2. CCN(c1cc(-c2ccc(CN3CCOCC3)cc2)cc(C(=O)NCc2c(C)cc(C)[nH]c2=O)c1C)C1CCOCC1 + Cc1ccccc1N=Nc1ccc(NC(=O)c2ccnn2C)c(C)c1
3. CC(C)CC(NC(=O)C(Cc1ccccc1)NC(=O)c1cnccn1)B(O)O (stereo not given) + Cc1ccccc1N=Nc1ccc(NC(=O)c2ccnn2C)c(C)c1
4. Nc1ncn(C2CC(O)C(CO)S2)c(=O)n1 (stereo not given) + Cc1cncc(-c2nc(NCCc3c[nH]c4ccccc34)c3ncn(C(C)C)c3n2)c1
5. CCc1c2c(nc3ccc(O)cc13)-c1cc3c(c(=O)n1C2)COC(=O)[C@]3(O)CC + Cc1cncc(-c2nc(NCCc3c[nH]c4ccccc34)c3ncn(C(C)C)c3n2)c1
6. CCc1c2c(nc3ccc(O)cc13)-c1cc3c(c(=O)n1C2)COC(=O)[C@]3(O)CC + Cc1ccccc1N=Nc1ccc(NC(=O)c2ccnn2C)c(C)c1
7. Nc1ncn(C2CC(O)C(CO)S2)c(=O)n1 (stereo not given) + CC(CO)NC(=O)c1cc(-c2ccc(Cl)cc2)nn(-c2cnn(C)c2)c1=O
8. CCN(c1cc(-c2ccc(CN3CCOCC3)cc2)cc(C(=O)NCc2c(C)cc(C)[nH]c2=O)c1C)C1CCOCC1 + CC(CO)NC(=O)c1cc(-c2ccc(Cl)cc2)nn(-c2cnn(C)c2)c1=O

1. 100
2. 116
3. 4.46
4. 94.7
5. 3.31
6. 4.26
7. 94.8
8. 103

Provide each entry's viability, T/C from the list below.
1. O=C(C=Cn1cnc(-c2cc(C(F)(F)F)cc(C(F)(F)F)c2)n1)NNc1cnccn1 + Cc1ccccc1N=Nc1ccc(NC(=O)c2ccnn2C)c(C)c1
2. CC(C)CC(NC(=O)C(Cc1ccccc1)NC(=O)c1cnccn1)B(O)O (stereo not given) + CC(CO)NC(=O)c1cc(-c2ccc(Cl)cc2)nn(-c2cnn(C)c2)c1=O
3. CCN(c1cc(-c2ccc(CN3CCOCC3)cc2)cc(C(=O)NCc2c(C)cc(C)[nH]c2=O)c1C)C1CCOCC1 + Cc1cncc(-c2nc(NCCc3c[nH]c4ccccc34)c3ncn(C(C)C)c3n2)c1
4. CCc1c2c(nc3ccc(O)cc13)-c1cc3c(c(=O)n1C2)COC(=O)[C@]3(O)CC + CC(CO)NC(=O)c1cc(-c2ccc(Cl)cc2)nn(-c2cnn(C)c2)c1=O

115
0.19
128
3.26

I am curious: what viability, T/C value has been reported for CC(C)CC(NC(=O)C(Cc1ccccc1)NC(=O)c1cnccn1)B(O)O (stereo not given) + Cc1cncc(-c2nc(NCCc3c[nH]c4ccccc34)c3ncn(C(C)C)c3n2)c1 ?
0.85
